For reference, the following IC50 results for Amine oxidase [flavin-containing] B (Homo sapiens) were taken from various sources.

Query string: Provide IC50 value for the following compound: O=C(/C=C/c1ccccc1)c1cc(Cl)cc(Cl)c1O
Result string: 790 nM

Query string: Supply reported IC50 belonging to this compound: C=CCNc1nnc(-c2cc(-c3nnc(NCC=C)s3)cc(-c3nnc(NCC=C)s3)c2)s1
Result string: > 100000 nM

Query string: Please look at this compound and report its IC50: COc1ccccc1/C=C1\Oc2cc(O)ccc2C1=O
Result string: 1840 nM

Query string: Query IC50 for O=C1/C(=C/c2ccc(O)cc2O)Oc2cc(O)ccc21
Result string: > 10000 nM

Query string: Please supply the value of reported IC50 for the item COc1ccc(/C=C2\Oc3cc(O)ccc3C2=O)cc1OC
Result string: > 10000 nM

Query string: Give the reported IC50 for this compound. Cn1nnnc1SCC(=O)N(Cc1ccccc1)c1ccc(S(N)(=O)=O)cc1
Result string: 127 nM

Query string: Supply reported IC50 belonging to this compound: Cl.NC1CC1c1ccc(NC(=O)c2cccc(-c3ccoc3)c2)cc1 (stereo not drawn)
Result string: 519 nM

Query string: Answer with the recorded IC50 of COc1ccc2c(c1)O/C(=C\c1cccc(O)c1)C2=O only.
Result string: > 10000 nM

Query string: Please list IC50 recorded for the compound O=C1/C(=C/c2ccc(O)c(O)c2)Oc2cc(O)ccc21
Result string: 2410 nM

* * *

Endpoint summary: IC50, system: UniProt:P27338, multiple sources combined.
Express it in nM; write the number only.

Query string: For CC(C)(C)c1ccc(OCCCN2CCCCCC2)cc1.O=C(O)C(=O)O , write its IC50.
Result string: 45

Query string: Given CSc1ccc(C(=O)/C=C/c2ccc(Br)cc2)cc1 , respond with its IC50.
Result string: 88

Query string: Quote IC50 reported for O=C1/C(=C/c2cccc(O)c2O)Oc2cc(O)ccc21 please.
Result string: 3000

Query string: Using the record for COc1ccc(/C=C2\Oc3cc(O)ccc3C2=O)cc1 , state its measured IC50.
Result string: 365

Query string: Give me measured IC50, please, for this compound: CSc1ccc(C(=O)/C=C/c2ccccc2)cc1
Result string: 17

Query string: Recall and state the measured IC50 for Cl.NC1CC1c1ccc(NC(=O)c2ccc(-c3cccs3)cc2)cc1 (centres unmarked) .
Result string: 32

Query string: Specify measured IC50 for Cl.NC1CC1c1ccc(NC(=O)c2ccc(-c3ccncc3)cc2)cc1 (centres unmarked) .
Result string: 358

Query string: Read off the recorded IC50 for COc1cccc(/C=C2\Oc3cc(O)ccc3C2=O)c1
Result string: 2410

Query string: Quickly give me recorded IC50 for CSc1ccc(C(=O)/C=C/c2ccc(F)cc2)cc1
Result string: 26

Query string: Identify the reported IC50 for the following entry. COc1cccc(/C=C2\Oc3cc(O)ccc3C2=O)c1OC
Result string: 3520

Query string: Supply measured IC50 of NS(=O)(=O)c1ccc(N(Cc2ccccc2)C(=O)CSc2nc3cc(Cl)ccc3s2)cc1 in your reply.
Result string: 41

Query string: Supply IC50 value. Item: COc1ccc2sc(SCC(=O)NN=Cc3ccc([N+](=O)[O-])s3)nc2c1
Result string: 60

Query string: Supply reported IC50 belonging to this compound: Cc1ccc(CN(C(=O)CSc2nc3cc(Cl)ccc3s2)c2ccc(S(N)(=O)=O)cc2)cc1
Result string: 65

Query string: Could you please provide reported IC50 for COc1ccc(/C=C/C(=O)c2ccc(SC)cc2)cc1 ? Thanks!
Result string: 88

Query string: Look up and state reported IC50 for Cl.NC1CC1c1ccc(NC(=O)c2ccc(-c3ccco3)cc2)cc1 (centres unmarked)
Result string: 73

Query string: Identify IC50 associated with the compound COc1cc2oc(-c3ccc(O)cc3)cc(=O)c2c(O)c1C
Result string: 800

Query string: Given the compound O=C1/C(=C/c2cc(O)ccc2O)Oc2cc(O)ccc21 , write its reported IC50.
Result string: 3520

Query string: Report measured IC50; entry is Cl.NC1CC1c1ccc(NC(=O)c2cccc(-c3ccncc3)c2)cc1 (centres unmarked)
Result string: 10400

Query string: Name the recorded IC50 of the compound listed here: CC(C)(C)c1ccc(OCCCCN2CCCCC2)cc1.O=C(O)C(=O)O
Result string: 290

Query string: Input CC1CCCN(CCCOc2ccc(C(C)(C)C)cc2)C1.O=C(O)C(=O)O (centres unmarked) , output reported IC50.
Result string: 117

Query string: // fetch IC50 given entry CSc1ccc(C(=O)/C=C/c2ccc(C)cc2)cc1
Result string: 58

Query string: Name the recorded IC50 of the compound listed here: O=c1oc2cc(O)ccc2c2oc3cc(O)ccc3c12
Result string: 77800

Query string: Please list IC50 recorded for the compound CCc1ccc(/C=C/C(=O)c2ccc(SC)cc2)cc1
Result string: 130

Query string: Return IC50 (reported value) for this compound: COc1ccc2sc(SCC(=O)NN=Cc3cccs3)nc2c1
Result string: 15400

Query string: For the compound COc1ccc2c(c1)O/C(=C\c1ccc(O)c(O)c1)C2=O , report IC50.
Result string: 2410

Query string: Determine its reported IC50: COc1ccc(-c2oc3cc(O)cc(O)c3c(=O)c2OC)cc1
Result string: 9670

Query string: State its IC50: COc1ccccc1O
Result string: 322000
